For each record, write down the corresponding melting point.
Form entry: value (°C) — number only.

Noted for "CC1(C)[C@@H](C(=O)O)CC[C@@]1(C)C(=O)O" : its melting point reads 186

Noted for "Cc1nc(N)ccc1C#N" : its melting point reads 165

Noted for CC1(C)c2ccccc2N(Cc2ccccc2)C12C=Cc1cc([N+](=O)[O-])ccc1O2 (stereo not drawn) : its melting point reads 159

* * *

For each record, write down the corresponding melting point.
Just so you know, I need the unit written after the number.

Noted for "O=C(O)CCc1c(F)c(F)nc(F)c1F" : its melting point reads 152 °C

Noted for "CO[C@@H]1[C@@H](O[C@@H]2O[C@H](C)[C@@H](O[C@H]3C[C@@](C)(O)[C@@H](OC(=O)CC(C)C)[C@H](C)O3)[C@H](N(C)C)[C@H]2O)[C@@H](CC=O)C[C@@H](C)[C@@H](O)C=CC=CC[C@@H](C)OC(=O)C[C@H]1OC(C)=O" : its melting point reads 132 °C

Noted for "CC[C@H](C)[C@H](N)C(=O)O" : its melting point reads 169 °C

Noted for "Cc1ccccc1C#N" : its melting point reads 13 °C

Noted for "O=[PH](O)c1ccccc1" : its melting point reads 84 °C

Noted for "CC(C)c1ccc(C(=O)O)cc1" : its melting point reads 119 °C

Noted for "CCCC(C)(C)O" : its melting point reads -102 °C

Noted for "Cc1nc(-c2cccnc2)sc1C(=O)O" : its melting point reads 246 °C

Noted for "COc1ccc(C(=O)O)cc1OC" : its melting point reads 181 °C

Noted for O=C(Nc1ccc([N+](=O)[O-])cc1Cl)c1cc(Cl)ccc1O [5-Chloro-N-(2-chloro-4-nitrophenyl)-2-hydroxybenzamide] : its melting point reads 223 °C

Noted for "CCCCCCCCS" : its melting point reads -49 °C

Noted for C=CCOc1ccc(CC(=O)O)cc1Cl [alclofenac] : its melting point reads 92.5 °C

Noted for "O=C(OC[C@H]1O[C@](O)(COC(=O)c2cccnc2)[C@@H](OC(=O)c2cccnc2)[C@@H]1OC(=O)c1cccnc1)c1cccnc1" : its melting point reads 135 °C

Noted for "O=C1/C(=N/Nc2cccc([N+](=O)[O-])c2)C(C(F)(F)F)=NN1c1ccccc1" : its melting point reads 151 °C

Noted for "O=S(=O)(O)O" : its melting point reads -2 °C

Noted for C=CC(=O)OC [methyl acrylate] : its melting point reads -75 °C

Noted for O=C(O)c1ccc(O)c([N+](=O)[O-])c1 [4-hydroxy-3-nitrobenzoic acid] : its melting point reads 183 °C

Noted for "Cc1c(C)c(C)c(Br)c(C)c1C" : its melting point reads 165 °C

Noted for "OC1CCCCC1" : its melting point reads 25.9 °C

Noted for CCCCCCCCCCCCCCCCCCCCCCC [N-tricosane] : its melting point reads 49 °C

Noted for "Cc1cccc(N)c1N" : its melting point reads 58 °C

Noted for "CCCCCC(C)=O" : its melting point reads -35 °C

Noted for O=C(/C=C/c1ccccc1[N+](=O)[O-])c1cccc(O)c1 [(2E)-1-(3-Hydroxyphenyl)-3-(2-nitrophenyl)-2-propen-1-one] : its melting point reads 188 °C

Noted for "Cc1ccc(C(=O)O)cc1" : its melting point reads 180 °C

Noted for CCCCSCCCC [di-n-butyl sulfide] : its melting point reads -80 °C

Noted for C/C(=C/C(=O)NN)C(=O)NN [citraconic hydrazide] : its melting point reads 286 °C

Noted for CI [Iodomethane] : its melting point reads -64 °C

Noted for O=C1COc2cccnc2N1 [2h-pyrido[3,2-b]-1,4-oxazin-3(4h)-one] : its melting point reads 206 °C

Noted for "COc1cc(Cl)ccc1C(=O)O" : its melting point reads 147 °C

Noted for "N#Cc1ccc(-c2ccc(C#N)cc2)cc1" : its melting point reads 237 °C

Noted for O=P1(N(CCCl)CCCl)NCCCO1 (configuration not stated) [N,N-Bis(2-chloroethyl)-1,3,2-oxazaphosphinan-2-amine 2-oxide] : its melting point reads 43 °C

Noted for "O=C/C=C/c1ccccc1" : its melting point reads -7 °C
